Origin of measurements: PubChem BioAssay (NCI)

Tested on: MDA-MB-231 breast
Assay: NCI tumour cell line growth inhibition, 48 h; in the data active means GI50 below about 0.43 µM; inactive means the rest
Outcomes you can answer with include only these: active, inactive

A selection of reference data follows.
COc1cc(OC)cc(-c2cncn2-c2ccc(-c3nc4cc(OC)cc(OC)c4s3)cc2)c1    inactive
COc1ccc(-c2csc3c2-n2cccc2C3=O)cc1O    active
CNCCOC(=O)/C=C1/CCC2C(C(O)CC3C(C)(C(=O)OC)CCCC23C)C1C (stereo not given)    active
C=C1C(=O)O[C@H]2C[C@@H]1CCC1(C)OC1CC/C(C)=C/CC[C@H]2C (stereo not given in full)    inactive
COc1cc2c3c(n(CCCNCCNCCCN)c(=O)c2cc1OC)-c1cc2c(cc1C3=O)OCO2    inactive

Query: GET /call?item= CCOC(=O)C1=C(c2ccccc2)N(c2ccc(OC)cc2)[C@]2(C#N)C(O)=C(Cl)C(Cl)=C(O)[C@]12C#N returns the recorded outcome of this test.
Response: inactive
